Molecular target: T1, human cell-surface M-CSF on stably transfected CHO cells (human, UniProt P09603 33-554)
T1 construct: also called csM-CSF
T1 sequence: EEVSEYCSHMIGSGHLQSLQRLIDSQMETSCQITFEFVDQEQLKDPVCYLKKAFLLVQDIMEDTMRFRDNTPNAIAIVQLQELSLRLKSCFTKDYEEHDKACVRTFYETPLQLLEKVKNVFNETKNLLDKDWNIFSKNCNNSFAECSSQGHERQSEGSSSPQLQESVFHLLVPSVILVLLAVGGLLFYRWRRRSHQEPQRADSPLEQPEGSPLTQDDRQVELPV
Assay: FACS, CHO cells stably transfected with M-CSF (n = 3)
Reported values of EC50 for individual entries

>  <Binder>
Maelle, IgG1_D265A (antibody, V domains shown, tested as IgG1 with D265A in the Fc (EU index)) VH: QVQLQQSGPGLVKPSQTLSLTCAISGESVSTSSAAWNWIRQSPSRGLEWLGRTYYRSKWKKEYAQSVKSRITINPDTSKNQFSLQLNSVTPEDTAVYYCARDRYYYSAFDYWGQGTLVTVSS VL: QSALTQPASVSGSPGQSITISCTGTSSDVGGYNSVSWYQQHPGKAPKLIIYAVSNRPSGVSNRFSGSKSGNTASLTISGLQAEDEADYYCASYDERFTRVFGGGTKLTVLG

>  <EC50, nM>
10.2

$$$$
>  <Binder>
Laurine, IgG1_D265A (antibody, V domains shown, tested as IgG1 with D265A in the Fc (EU index); Parental antibody of Madeleine, Maelle, Meriem) VH: QVQLQQSGPGLVKPSQTLSLTCAISGDSVSSNSAAWNWIRQSPSRGLEWLGRTYYRSKWKKEYAQSVKSRITINPDTSKNQFSLQLNSVTPEDTAVYYCARDRYYYSAFDYWGQGTLVTVSS VL: DIALTQPASVSGSPGQSITISCTGTSSDVGGYNSVSWYQQHPGKAPKLMIYAVSNRPSGVSNRFSGSKSGNTASLTISGLQAEDEADYYCASYDERFTRVFGGGTKLTVLG

>  <EC50, nM>
11.2

$$$$
>  <Binder>
Servane, IgG1_D265A (antibody, V domains shown, tested as IgG1 with D265A in the Fc (EU index)) VH: EVQLVESGGGLVKPGGSLRLSCAASGFTFSTYAISWVRQAPGKGLEWVGFIKSKHNSGTTEYAAPVKGRFTISRDDSKNTLYLQMNSLKTEDTAVYYCARMRYYSDLYFDPWGQGTLVTVSS VL: SYELTQPPSVSVSPGQTASITCSGDKLGQKYVSWYQQKPGQSPVLVISQDRKRPSGIPERFSGSNSGNTATLTISGTQAEDEADYYCQTWTHLQWVFGGGTKLTVLG

>  <EC50, nM>
21.3

$$$$
